Here the recorded isobaric coefficient of expansion is given for each entry.
- assayOverview: isobaric coefficient of expansion
- conditionInfo: 338.15 K; 15000 kPa; Liquid; Micro DSCII

[
  {
    "molecule": "CCCCn1cc[n+](C)c1.O=S(=O)([O-])C(F)(F)F [1-butyl-3-methylimidazolium trifluoromethanesulfonate]",
    "isobaric coefficient of expansion": "0.000578 1/K"
  },
  {
    "molecule": "CCCCn1cc[n+](C)c1.F[B-](F)(F)F [1-butyl-3-methylimidazolium tetrafluoroborate]",
    "isobaric coefficient of expansion": "0.000561 1/K"
  },
  {
    "molecule": "CCCCn1cc[n+](C)c1.COS(=O)(=O)[O-] [1-butyl-3-methylimidazolium methyl sulfate]",
    "isobaric coefficient of expansion": "0.000521 1/K"
  },
  {
    "molecule": "CCCCn1cc[n+](C)c1.[F][Sb-]([F])([F])([F])([F])[F] [1-butyl-3-methylimidazolium hexafluoroantimonate]",
    "isobaric coefficient of expansion": "0.000593 1/K"
  },
  {
    "molecule": "CCCC[n+]1ccn(C)c1.O=S(=O)([N-]S(=O)(=O)C(F)(F)F)C(F)(F)F",
    "isobaric coefficient of expansion": "0.000625 1/K"
  }
]
